The measured values listed here are drawn from patent US10258602B2.

assayProcedure: in vitro
runConditions: human, Caco-2
property: Papp B→A at 60 min, 10 μM (×10⁻⁶ cm/s)
Give bare numbers, in ×10⁻⁶ cm/s.

Papp B→A at 60 min, 10 μM for CC(C)C[C@H]1NC(=O)[C@@H](C)N(C)C(=O)[C@H](C2CCCCC2)NC[C@H]2CCc3cccc(c3O2)CCCNC1=O is 110

----------
targetOrTestSystem: CYP3A4 (Homo sapiens, UniProt P08684)
Construct: purchased BD Gentest, Becton-Dickinson (Supersomes); host or cells: insect cells
Sequence (P08684 whole entry): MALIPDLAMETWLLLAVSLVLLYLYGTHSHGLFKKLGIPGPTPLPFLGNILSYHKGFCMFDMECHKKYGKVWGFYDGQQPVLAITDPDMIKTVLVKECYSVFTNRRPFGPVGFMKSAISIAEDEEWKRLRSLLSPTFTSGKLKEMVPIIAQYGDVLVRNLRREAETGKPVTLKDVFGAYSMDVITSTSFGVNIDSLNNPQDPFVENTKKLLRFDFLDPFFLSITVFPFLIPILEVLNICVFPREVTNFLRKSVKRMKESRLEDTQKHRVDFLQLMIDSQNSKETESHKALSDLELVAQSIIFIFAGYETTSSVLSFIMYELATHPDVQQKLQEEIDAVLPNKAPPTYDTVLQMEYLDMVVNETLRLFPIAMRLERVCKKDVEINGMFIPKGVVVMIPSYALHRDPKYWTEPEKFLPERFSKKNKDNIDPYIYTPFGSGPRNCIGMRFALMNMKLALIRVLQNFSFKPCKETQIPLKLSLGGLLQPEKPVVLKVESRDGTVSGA
assayProcedure: Cytochrome P450 inhibition, CYP3A4 (two substrates)
Assay type: in vitro ADME
runConditions: CYP3A4, substrate BQ; read-out: IC50 3A4 (BQ)
property: IC50 (µM)
Give bare numbers, in µM.

Guide cases for IC50, answers given:
{"columns": ["compound", "unit", "IC50"],
 "data": [
  ["CC(C)C[C@H]1NC(=O)[C@@H](C)N(C)C(=O)[C@H](C2CC2)NCCOc2c(ccc(F)c2F)CCCNC1=O [Compound 816]", "µM", 1.36],
  ["CC(C)C[C@H]1NC(=O)[C@@H](C)N(C)C(=O)[C@H](C2CC2)NC[C@@H](C)Oc2ccccc2CC[C@H](C)NC1=O [Compound 807]", "µM", 6.1],
  ["CC(C)C[C@H]1NC(=O)[C@@H](C)N(C)C(=O)[C@H](C2CC2)NCCOc2cc(F)ccc2CCCNC1=O [Compound 810]", "µM", 1.08]
]}

Please turn your attention to the following entry.
get_value(item= CC(C)C[C@H]1NC(=O)[C@@H](C)N(C)C(=O)[C@H](C2CC2)NCCOc2cc(F)ccc2CC[C@H](C)NC1=O [Compound 822] , readout=IC50) returns 4.15

----------
Tested on: fasted rats
assayProcedure: Gastric emptying in fasted rat model, standard method E
Type: in vivo
runConditions: dose 3 mg/kg, average where repeated
property: Percent Increase in Gastric Emptying After Oral Administration (%)
Numbers only, in %.

{"columns": ["molecule", "valueObserved"],
 "data": [
  ["CC(C)CC1NC(=O)C(C)N(C)C(=O)C(C2CCCCC2)NCC(C)OC2CCCCC2CCCNC1=O (mixture of isomers)", 24],
  ["CC(C)C[C@H]1NC(=O)[C@@H](C)N(C)C(=O)[C@H](C2CC2)NC[C@H]2CCc3cccc(c3O2)CCCNC1=O", 11]
]}

Now consider the entry below.
Entry C[C@@H]1CN[C@@H](C2CC2)C(=O)N(C)[C@H](C)C(=O)N[C@H](Cc2ccc(O)cc2)C(=O)N[C@@H](C)CCc2ccccc2O1 , Percent Increase in Gastric Emptying After Oral Administration reported as 37

----------
targetOrTestSystem: human growth hormone secretagogue receptor (hGHS-R1a) (Homo sapiens, UniProt Q92847)
Sequence (Q92847 whole entry): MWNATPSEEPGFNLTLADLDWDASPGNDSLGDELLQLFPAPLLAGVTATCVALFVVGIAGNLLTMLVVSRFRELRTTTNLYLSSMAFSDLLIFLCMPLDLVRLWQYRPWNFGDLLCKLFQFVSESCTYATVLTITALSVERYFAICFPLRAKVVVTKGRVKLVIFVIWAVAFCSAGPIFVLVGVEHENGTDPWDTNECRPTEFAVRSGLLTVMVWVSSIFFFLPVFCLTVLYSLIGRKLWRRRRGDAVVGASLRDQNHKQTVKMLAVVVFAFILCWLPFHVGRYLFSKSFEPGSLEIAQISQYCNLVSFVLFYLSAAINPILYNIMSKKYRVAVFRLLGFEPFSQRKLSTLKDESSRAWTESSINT
assayProcedure: Competitive radioligand binding assay (ghrelin receptor), standard method A
runConditions: binding activity at the human ghrelin receptor, standard method A
Excerpt: A competitive binding assay at the human growth hormone secretagogue receptor (hGHS-R1a) can be carried out analogously to assays described in the literature. (Bednarek, M. A.; et al. J. Med. Chem. 2000, 43, 4370-4376; Palucki, B. L.; et al. Bioorg. Med. Chem. Lett. […], 11, 1955-1957.) See also U.S. patent application Ser. Nos. 11/149,512 and 11/149,731. Binding activity at the gherlin receptor for representative compounds of the present invention is shown in the Examples below.
property: Ki

{"columns": ["compound", "targetOrTestSystem", "Ki"],
 "data": [
  ["Cc1ccc(C[C@H]2NC(=O)[C@@H](C)N(C)C(=O)[C@H](C3CC3)NCCOc3ccccc3CCCNC2=O)cc1 [Compound 860]", "human growth hormone secretagogue receptor (hGHS-R1a) (Homo sapiens, UniProt Q92847)", "≤ 10 nM"],
  ["CC(C)C[C@H]1NC(=O)[C@@H](C)N(C)C(=O)[C@H](C2CC2)NC[C@@H](C)Oc2cccnc2CC[C@H](C)NC1=O [Compound 1088]", "human growth hormone secretagogue receptor (hGHS-R1a) (Homo sapiens, UniProt Q92847)", "≤ 500 nM"],
  ["CC(C)CC1NC(=O)C(C)N(C)C(=O)C(C2CC2)NCC(C)OC2CCCCC2CCCNC1=O (mixture of isomers) [Compound 825]", "human growth hormone secretagogue receptor (hGHS-R1a) (Homo sapiens, UniProt Q92847)", "≤ 10 nM"],
  ["CC1CNC(C2CC2)C(=O)N(C)C(C)C(=O)NC(CC(C)(C)C)C(=O)NCCCC2CCCCC2O1 (mixture of isomers) [Compound 833]", "human growth hormone secretagogue receptor (hGHS-R1a) (Homo sapiens, UniProt Q92847)", "≤ 10 nM"]
]}

Quick request: Ki for each listed item, please.
1. CC(C)[C@@H]1CN[C@@H](C2CC2)C(=O)N(C)[C@H](C)C(=O)N[C@H](Cc2ccccc2)C(=O)NCCCc2ccc(F)cc2O1 [Compound 965]
2. CC1NC(C2CC2)C(=O)N(C)C(C)C(=O)NC(Cc2ccc(O)cc2)C(=O)NCCCc2ccccc2OC1C (stereo not drawn) [Compound 820]

## Output
≤ 500 nM
≤ 100 nM

----------
assayProcedure: Pharmacokinetic analysis (oral bioavailability, elimination half-life) in the rat
Assay type: in vivo
runConditions: plasma, oral administration, 8 mg/kg dose, HPLC-MS, read-out: Elimination Half-life (t1/2, rat, min)
Protocol: D. Pharmacokinetic Analysis of Representative Compounds of the Invention The pharmacokinetic behavior of compound of the invention can be ascertained by methods well known to those skilled in the art. […] The table below presents oral bioavailability and elimination half-life data in the rat for representative compounds of the present invention. The parameters were determined by HPLC-MS after oral administration of an 8 mg/kg dose of the compound, except for compound 822 where a 2 mg/kg dose was used.
Can you tell me half-life for the items I'm about to list?
Remember to follow the number with its unit.

Below, 2 compounds whose answers are already recorded.
{"columns": ["smiles", "half-life"],
 "data": [
  ["C[C@@H]1CN[C@@H](C2CC2)C(=O)N(C)[C@H](C)C(=O)N[C@H](Cc2ccc(Cl)cc2)C(=O)NCCCc2ccc(F)cc2O1", "255 min"],
  ["CC(C)C[C@H]1NC(=O)[C@@H](C)N(C)C(=O)[C@H](C2CC2)NC[C@@H](C)Oc2ccccc2CC[C@H](C)NC1=O", "197 min"]
]}

Now for the compound whose half-life we want.
Entry CC(C)C[C@H]1NC(=O)[C@@H](C)N(C)C(=O)[C@H](C2CCCCC2)NC[C@H]2CCc3cccc(c3O2)CCCNC1=O — recorded half-life = 42 min

----------
Provide the reported pIC50 of each item.
targetOrTestSystem: CYP3A4 (Homo sapiens, UniProt P08684)
Construct: purchased BD Gentest, Becton-Dickinson (Supersomes); host or cells: insect cells
assayProcedure: Cytochrome P450 inhibition, CYP3A4 (two substrates)
Assay type: in vitro ADME
runConditions: CYP3A4, substrate BFC; read-out: IC50 3A4 (BFC)
Experimental: K. Assay for Cytochrome P450 Inhibition Cytochrome P450 enzymes are implicated in the phase I metabolism of drugs. The majority of drug-drug interactions are metabolism-based and, moreover, these interactions typically involve inhibition of cytochrome P450s. […] The key aspects of the experimental method were as follows: • 1. […] Assays monitored, via fluorescence detection, the formation of a fluorescent metabolite following incubation of the microsomes with a specific CYP substrate. • 3. […]
Give bare numbers, as −log10 of the molar value.

{"columns": ["compound", "targetOrTestSystem", "valueObserved"],
 "data": [
  ["C[C@@H]1C(=O)N[C@H](Cc2ccc(O)cc2)C(=O)NCCCc2ccc(F)cc2OCCN[C@@H](C2CC2)C(=O)N1C", "CYP3A4 (Homo sapiens, UniProt P08684)", 5.18]
]}

List pIC50 for every entry below, keeping the order given.
1. CC(C)C[C@H]1NC(=O)[C@@H](C)N(C)C(=O)[C@H](C2CC2)NCCOc2cc(F)ccc2CCCNC1=O
2. CC(C)CC1NC(=O)C(C)N(C)C(=O)C(C2CCCCC2)NCC(C)OC2CCCCC2CCCNC1=O (mixture of isomers)

## Output
1: 5.13; 2: 4.73

----------
Kindly state log10 of IC50 for each of the entries shown.
targetOrTestSystem: CYP3A4 (Homo sapiens)
Construct: purchased BD Gentest, Becton-Dickinson (Supersomes); host or cells: insect cells
assayProcedure: Cytochrome P450 inhibition, CYP3A4 (two substrates)
Format: in vitro ADME
runConditions: CYP3A4, substrate BFC; read-out: IC50 3A4 (BFC)
The common logarithm of IC50 in µM is what is listed.

Here's what some known entries look like.
{"columns": ["compound", "property", "valueObserved"],
 "data": [
  ["CC(C)C[C@H]1NC(=O)[C@@H](C)N(C)C(=O)[C@H](C2CC2)NCCOc2c(ccc(F)c2F)CCCNC1=O", "log10 of IC50", 0.77],
  ["CC(C)C[C@H]1NC(=O)[C@@H](C)N(C)C(=O)[C@H](C2CC2)NC[C@@H](C)Oc2ccccc2CC[C@H](C)NC1=O", "log10 of IC50", 1.37],
  ["CC(C)CC1NC(=O)C(C)N(C)C(=O)C(C2CC2)NCC(C)OC2CCCCC2CCCNC1=O (mixture of isomers)", "log10 of IC50", 1.97],
  ["CC1NC(C2CC2)C(=O)N(C)C(C)C(=O)NC(Cc2ccc(O)cc2)C(=O)NCCCc2ccccc2OC1C (stereo not drawn)", "log10 of IC50", 1.68],
  ["CC1CNC(C2CC2)C(=O)N(C)C(C)C(=O)NC(Cc2ccc(O)cc2)C(=O)NCCCC2CCCCC2O1 (mixture of isomers)", "log10 of IC50", 1.68]
]}

CC(C)C[C@H]1NC(=O)[C@@H](C)N(C)C(=O)[C@H](C2CC2)NCCOc2cc(F)ccc2CC[C@H](C)NC1=O has a reported log10 of IC50 of 1.15
